Attribution: patent US20080206268A1

Target: HLA-B60 on HLA typed EBV-LCLs (human)
Assay: cell-based competition assay, flow cytometry
metric: IC50

# binder KECVLRDDLL [decameric HA-1^R peptide …] ; its IC50 = 1.6 to 5.3 µM
